system.name: h-GABA-A α5β3γ2 (Homo sapiens, UniProt P18507+P31644)
test.method.notes: [3H]flumazenil competition binding assay, membranes of HEK293 cells expressing GABAA receptors
reported.conditions: displacement of [3H]-Flumazenil 0.5 nM, HEK293 cells expressing human receptors, mean of two determinations; Table 1
Known pKi of a selection of molecules
Remember, pKi is on a log scale: it is -log10 of the molar concentration.

{"columns": ["mol.smiles", "pKi"],
 "data": [
  ["COc1ccc(-c2cnn(Cc3c(-c4ccc(C)nc4)noc3C)c(=O)c2)cn1", 7.62],
  ["Cc1ccc(-c2noc(C)c2Cn2ncc(-c3ccc(C(F)(F)F)cc3)cc2=O)cn1", 7.76]
]}

Using the record for `Cc1ccc(-c2noc(C)c2Cn2ncc(-c3cnn(C)c3)cc2=O)cn1` , report its pKi. 7.53

---

system.name: h-GABA-A α5β3γ2 (Homo sapiens, UniProt P18507+P31644)
test.method.notes: Two-electrode voltage clamp electrophysiology in Xenopus laevis oocytes expressing GABAA receptors, modulation of GABA EC20 current
Format: cell-based
Set-up: host or cells: Xenopus laevis oocytes micro-injected with RNA transcripts of the subunits
reported.conditions: test compound at approx. 30 fold its Ki, GABA at EC20; Table 1
Could you mark each record yes (1) if its Fold increase h-GABA-A α5β3γ2 oocyte falls strictly under 2, and no (0) if it equals or exceeds it?

{"columns": ["molecule", "category"],
 "data": [
  ["Cc1ccc(-c2noc(C)c2Cn2ncc(N3CC(Oc4ccc(C)nn4)C3)cc2=O)cn1", "no (0)"],
  ["Cc1ccc(-c2noc(C)c2Cn2ncc(N3CC4(C[C@@H](OC(F)F)CO4)C3)cc2=O)cn1", "no (0)"],
  ["Cc1cc(-c2noc(C)c2Cn2ncc(N3CCN(C4CC4)CC3)cc2=O)no1", "yes (1)"]
]}

Item `Cc1onc(-c2ccc(C(F)(F)F)nc2)c1Cn1ncc(N2CCN(C3CC3)CC2)cc1=O` : Fold increase h-GABA-A α5β3γ2 oocyte beneath 2, strictly? no (0)

Check Cc1ccc(-c2noc(C)c2Cn2ncc(N3CC4(CCC(C(F)(F)F)CO4)C3)cc2=O)nn1 (single isomer, unassigned) [Example 321] too. no (0)

Note, next up: Cc1ccc(-c2noc(C)c2Cn2ncc(N3CC4(CC(C(F)(F)F)CCO4)C3)cc2=O)nn1 (single isomer, unassigned) [Example 312] no (0)

`CO[C@H]1CN(c2cnn(Cc3c(-c4ccc(C)nc4)noc3C)c(=O)c2)[C@H]1C` , same question. no (0)

---

List of Fold increase h-GABA-A α5β3γ2 oocyte values.
system.name: h-GABA-A α5β3γ2 (Homo sapiens, UniProt P18507+P31644)
test.method.notes: Two-electrode voltage clamp electrophysiology in Xenopus laevis oocytes expressing GABAA receptors, modulation of GABA EC20 current
Format: cell-based
Design: host or cells: Xenopus laevis oocytes micro-injected with RNA transcripts of the subunits
reported.conditions: test compound at approx. 30 fold its Ki, GABA at EC20; Table 1

{"columns": ["compound", "Fold increase h-GABA-A α5β3γ2 oocyte"],
 "data": [
  ["CCn1cc(-c2cnn(Cc3c(-c4ccc(Cl)nc4)noc3C)c(=O)c2)cn1 [Example 221]", 1.99]
]}

Returns the measured Fold increase h-GABA-A α5β3γ2 oocyte for the input compound. Input: Cc1ccc(-c2noc(C)c2Cn2ncc(N3C[C@@H](C)N[C@@H](C)C3)cc2=O)cn1 [Example 93] 2.25

Likewise for Cc1ccc(-c2noc(C)c2Cn2ncc(-c3ccnc(C(F)(F)F)c3)cc2=O)cn1 [Example 108] ? 2.04
